Test system: Aphids
assay.notes: Aphid spray test on replicate ivy cuttings infested with Aphids
Assay type: in vivo
assay.context: aphids, average of 3 replicates; 5 ml sprayed; 18 hours
Description: A 100 mg sample of the candidate compound was dissolved in 10 ml absolute ethanol. To the solution was added 40 ml tap water containing 0.5 ml of 1% surfactant. A 5 ml sample of each solution was sprayed on to replicate ivy cuttings infested with Aphids. The results, tabulated below in Table I were recorded 18 hours following the application of the sprays. […] In the first column, the LD50 of the compounds in mice is a measure of their mammalian toxicity. […]
measured.quantity: Avg. % Dead (%)
Just the number in %, nothing appended.

Some compounds with recorded Avg. % Dead:
{"compound": "Cc1ccc(C2CCCN2C)c(C)n1 (centres unmarked) [2,6-dimethylnicotine]", "data.value": 6}
{"compound": "Cc1ncccc1C1CCCN1 (centres unmarked) [2-methylnornicotine, 2-Methyl-3-(2-pyrrolidinyl)pyridine]", "data.value": 3}
{"compound": "CN1CCC[C@H]1c1cccnc1 [l-nicotine, reference compound]", "data.value": 100}
{"compound": "Cc1ncccc1C1CCCCN1 (centres unmarked) [2-methylanabasine, 2-Methyl-3-(2-piperidinyl)pyridine]", "data.value": 52}

Could you now consider this next compound?
Lab note: Cc1ncccc1C1CCCN1C (centres unmarked) [2-methylnicotine] gave Avg. % Dead of 6
